# Test system: Abp1 PPIs
# METHOD DESCRIPTION: DHFR-PCA of Abp1 SH3-swapped baits (Fig. 2B-D, S2C, S2F)
# Type: cell-based, Saccharomyces cerevisiae
# PROTOCOL CONDITIONS: number of PPIs, difference; Abp1 SH3-swapped with the listed SH3; Fig2D,S2F
TEST READOUT: SH3-dependent PPIs - SH3-dependent PPIs gained by Abp1

Illustrative cases are given below, each with its answer.
MOLECULE	RESULT
PIN3 (protein, UniProt Q06449 2-215, looked up) [PSI+] inducibility protein 3: SASLINRSLTNIRTELDFLKGSNVISNDVYDQINKSLPAKWDPANAPRNASPASLEYVEALYQFDPQQDGDLGLKPGDKVQLLEKLSPEWYKGSCNGRTGIFPANYVKPAFSGSNGPSNLPPPPQYKAQELQQIPTQNSAASSYQQQPFPPPSTNYYQQPQQQPQQAPPPQQQQQQQQHQSSHSHLKSFGSKLGNAAIFGAGASIGSDIVNNIF	13
SHO1 (protein, UniProt P40073 1-367, looked up) High osmolarity signaling …: MSISSKIRPTPRKPSRMATDHSFKMKKFYADPFAISSISLAIVSWVIAIGGSISSASTNESFPRFTWWGIVYQFLIICSLMLFYCFDLVDHYRIFITTSIAVAFVYNTNSATNLVYADGPKKAAASAGVILLSIINLIWILYYGGDNASPTNRWIDSFSIKGIRPSPLENSLHRARRRGNRNTTPYQNNVYNDAIRDSGYATQFDGYPQQQPSHTNYVSSTALAGFENTQPNTSEAVNLHLNTLQQRINSASNAKETNDNSNNQTNTNIGNTFDTDFSNGNTETTMGDTLGLYSDIGDDNFIYKAKALYPYDADDDDAYEISFEQNEILQVSDIEGRWWKARRANGETGIIPSNYVQLIDGPEEMHR	1

Now turn to the next molecule.
q: Give its SH3-dependent PPIs - SH3-dependent PPIs gained by Abp1 value. Item: PEX13 (protein, UniProt P80667 1-386, looked up) Peroxisomal membrane protein …: MSSTAVPRPKPWETSASLEEPQRNAQSLSAMMTSNQQDSRPTEESNNSNSASESAPEVLPRPAALNSSGTYGESNTIPGIYGNSNYGIPYDNNPYSMNSIYGNSIGRYGYGGSYYGNNYGSFYGGGYGAGAGYGMNNGSGLGESTKATFQLIESLIGAVTGFAQMLESTYMATHNSFFTMISVAEQFGNLKEMLGSFFGIFAIMKFLKKILYRATKGRLGIPPKNFAESEGSKNKLIEDFQKFNDSGTINSNEKATRRKISWKPLLFFLMAVFGFPYLLNKFITKLQTSGTIRASQGNGSEPIDPSKLEFARALYDFVPENPEMEVALKKGDLMAILSKKDPLGRDSDWWKVRTKNGNIGYIPYNYIEIIKRRKKIEHVDDETRTH
a: 0
